System: 242566-281-R-J2-PDC complex spheroid viability
procedure.details: Anticancer human tumor 242566-281-R-J2-PDC patient-derived pancreatic carcinoma cell line growth inhibition [RAS]
condition.set: curve of first compound; second compound 0.000949 µM
pIC50: −log10 of the molar value.
recorded.metric: pIC50

# annotated cases, reported pIC50 shown
{"compound": "Cc1nc(N2CCC3(CC2)COC(C)C3N)c(CO)nc1Sc1ccnc(N)c1Cl (stereo not drawn) + CCn1c(-c2cccnc2C(C)OC)c2c3cc(ccc31)N1CCOC(CC(NC(=O)C(C(C)C)N(C)C(=O)C3(F)CCN(C(=O)C#CC(C)(C)N(C)C)CC3)C(=O)N3CCCC(N3)C(=O)OCC(C)(C)C2)C1", "experimental.target": "242566-281-R-J2-PDC complex spheroid viability", "observed.result": "< 5.00"}
{"compound": "CC1(C)CCC(Nc2ncc(C(F)(F)F)c(-c3c[nH]c4c(P(C)(C)=O)c(C#N)ccc34)n2)CN1 (stereo not drawn) + CCn1c(-c2cc(N3CCN(C)CC3)cnc2C(C)OC)c2c3cc(ccc31)-c1csc(n1)CC(NC(=O)C1CC1C)C(=O)N1CCCC(N1)C(=O)OCC(C)(C)C2", "experimental.target": "242566-281-R-J2-PDC complex spheroid viability", "observed.result": "< 6.52"}

// next item, pIC50 requested
Incoming: What value of measured pIC50 is listed for C[C@@H](NC(=O)c1ncnc(N)c1Cl)c1ncc(C(=O)Nc2cc(C(F)(F)F)c(Cl)cn2)s1 + CCn1c(-c2cccnc2C(C)OC)c2c3cc(ccc31)N1CCOC(CC(NC(=O)C(C(C)C)N(C)C(=O)C3(F)CCN(C(=O)C#CC(C)(C)N(C)C)CC3)C(=O)N3CCCC(N3)C(=O)OCC(C)(C)C2)C1 ?
Outgoing: < 5.00

----------
Tested on: 242566-281-R-J2-PDC complex spheroid viability
procedure.details: Anticancer human tumor 242566-281-R-J2-PDC cell line growth inhibition [RAS];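 also: spheroids exposed to compound for 7 days before readout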
condition.set: curve of first compound; second compound 0.0316 µM
recorded.metric: IC50

# annotated cases, reported IC50 shown
{"compound": "NC1c2ccccc2OC12CCN(c1cnc3c(N4CCCc5ncccc54)n[nH]c3n1)CC2 (stereo not given) + C=CC(=O)N1CCN(c2nc(OCC3CCCN3C)nc3c(F)c(-c4nc(N)cc(C)c4C(F)(F)F)c(Cl)cc23)C(C)C1", "IC50": "> 10000 nM"}
{"compound": "CC1(O)CCCC1n1c(=O)c(C(F)F)cc2cnc(NC3CCN(S(C)(=O)=O)CC3)nc21 (stereo not given) + C=CC(=O)N1CCN(c2nc(OCC3CCCN3C)nc3c(F)c(-c4nc(N)cc(C)c4C(F)(F)F)c(Cl)cc23)C(C)C1", "IC50": "> 10000 nM"}
{"compound": "CC(=O)OC12COC1CC(O)C1(C)C(=O)C(O)C3=C(C)C(OC(=O)C(O)C(NC(=O)OC(C)(C)C)c4ccccc4)CC(O)(C(OC(=O)c4ccccc4)C21)C3(C)C (stereo not given) + C#Cc1c(F)ccc2cc(O)cc(-c3ncc4c(N5CC6CCC(C5)N6)nc(OCC56CCCN5CC(F)C6)nc4c3F)c12", "IC50": "> 10000 nM"}

Incoming: What value of measured IC50 is listed for CC1(C)CCC(Nc2ncc(C(F)(F)F)c(-c3c[nH]c4c(P(C)(C)=O)c(C#N)ccc34)n2)CN1 (stereo not given) + C#Cc1c(F)ccc2cc(O)cc(-c3ncc4c(N5CC6CCC(C5)N6)nc(OCC56CCCN5CC(F)C6)nc4c3F)c12 ?
Outgoing: > 300 nM

Incoming: What value of measured IC50 is listed for C[C@@H](NC(=O)c1ncnc(N)c1Cl)c1ncc(C(=O)Nc2cc(C(F)(F)F)c(Cl)cn2)s1 + C#Cc1c(F)ccc2cc(O)cc(-c3ncc4c(N5CC6CCC(C5)N6)nc(OCC56CCCN5CC(F)C6)nc4c3F)c12 ?
Outgoing: > 10000 nM

Incoming: What value of measured IC50 is listed for CC1(C)CCC(Nc2ncc(C(F)(F)F)c(-c3c[nH]c4c(P(C)(C)=O)c(C#N)ccc34)n2)CN1 (stereo not given) + C=CC(=O)N1CCN(c2nc(OCC3CCCN3C)nc3c(F)c(-c4nc(N)cc(C)c4C(F)(F)F)c(Cl)cc23)C(C)C1 ?
Outgoing: > 300 nM

Incoming: What value of measured IC50 is listed for CCN1CCN(Cc2ccc(Nc3ncc(F)c(-c4cc(F)c5nc(C)n(C(C)C)c5c4)n3)nc2)CC1 + C=CC(=O)N1CCN(c2nc(OCC3CCCN3C)nc3c(F)c(-c4nc(N)cc(C)c4C(F)(F)F)c(Cl)cc23)C(C)C1 ?
Outgoing: > 1000 nM

Incoming: What value of measured IC50 is listed for Cc1nc(N2CCC3(CC2)COC(C)C3N)c(CO)nc1Sc1ccnc(N)c1Cl (stereo not given) + C=CC(=O)N1CCN(c2nc(OCC3CCCN3C)nc3c(F)c(-c4nc(N)cc(C)c4C(F)(F)F)c(Cl)cc23)C(C)C1 ?
Outgoing: > 10000 nM

Incoming: What value of measured IC50 is listed for C=CC(=O)Nc1cc(Nc2nccc(-c3cn(C)c4ccccc34)n2)c(OC)cc1N(C)CCN(C)C + C#Cc1c(F)ccc2cc(O)cc(-c3ncc4c(N5CC6CCC(C5)N6)nc(OCC56CCCN5CC(F)C6)nc4c3F)c12 ?
Outgoing: 114 nM

Incoming: What value of measured IC50 is listed for C=CC(=O)Nc1cc(Nc2nccc(-c3cn(C)c4ccccc34)n2)c(OC)cc1N(C)CCN(C)C + C=CC(=O)N1CCN(c2nc(OCC3CCCN3C)nc3c(F)c(-c4nc(N)cc(C)c4C(F)(F)F)c(Cl)cc23)C(C)C1 ?
Outgoing: > 1000 nM

----------
Test system: 242566-281-R-J2-PDC complex spheroid viability
procedure.details: Anticancer human tumor 242566-281-R-J2-PDC cell line growth inhibition [RAS];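 also: spheroids exposed to compound for 7 days before readout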;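 as to viability, T/C: 100% = DMSO vehicle control wells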
condition.set: second compound 0.0949 µM; first compound 1 µM; stronger effect = lower value
molecules and their reported viability, T/C
Numeric only. Scale: %

# annotated cases, reported viability, T/C shown
{"molecule": "CC1(O)CCCC1n1c(=O)c(C(F)F)cc2cnc(NC3CCN(S(C)(=O)=O)CC3)nc21 (stereo unspecified) + CCn1c(-c2cc(N3CCN(C)CC3)cnc2C(C)OC)c2c3cc(ccc31)-c1csc(n1)CC(NC(=O)C1CC1C)C(=O)N1CCCC(N1)C(=O)OCC(C)(C)C2", "observed.result": 28.7}
{"molecule": "C=CC(=O)N1CCN(c2nc(OCC3CCCN3C)nc3c(F)c(-c4nc(N)cc(C)c4C(F)(F)F)c(Cl)cc23)C(C)C1 (stereo unspecified) + CCn1c(-c2cc(N3CCN(C)CC3)cnc2C(C)OC)c2c3cc(ccc31)-c1csc(n1)CC(NC(=O)C1CC1C)C(=O)N1CCCC(N1)C(=O)OCC(C)(C)C2", "observed.result": 26}
{"molecule": "CC(=O)OC12COC1CC(O)C1(C)C(=O)C(O)C3=C(C)C(OC(=O)C(O)C(NC(=O)OC(C)(C)C)c4ccccc4)CC(O)(C(OC(=O)c4ccccc4)C21)C3(C)C (stereo unspecified) + CCn1c(-c2cc(N3CCN(C)CC3)cnc2C(C)OC)c2c3cc(ccc31)-c1csc(n1)CC(NC(=O)C1CC1C)C(=O)N1CCCC(N1)C(=O)OCC(C)(C)C2", "observed.result": 10.5}
{"molecule": "CC(C)NCC(C(=O)N1CCN(c2ncnc3c2C(C)CC3O)CC1)c1ccc(Cl)cc1 (stereo unspecified) + CCn1c(-c2cccnc2C(C)OC)c2c3cc(ccc31)N1CCOC(CC(NC(=O)C(C(C)C)N(C)C(=O)C3(F)CCN(C(=O)C#CC(C)(C)N(C)C)CC3)C(=O)N3CCCC(N3)C(=O)OCC(C)(C)C2)C1", "observed.result": 97.7}
{"molecule": "CC(C)NCC(C(=O)N1CCN(c2ncnc3c2C(C)CC3O)CC1)c1ccc(Cl)cc1 (stereo unspecified) + CCn1c(-c2cc(N3CCN(C)CC3)cnc2C(C)OC)c2c3cc(ccc31)-c1csc(n1)CC(NC(=O)C1CC1C)C(=O)N1CCCC(N1)C(=O)OCC(C)(C)C2", "observed.result": 20.8}

Incoming: Hello, I am looking for reported viability, T/C with 242566-281-R-J2-PDC complex spheroid viability for O=C(c1ccc(F)c(F)c1Nc1ccc(I)cc1F)N1CC(O)([C@@H]2CCCCN2)C1 + CCn1c(-c2cccnc2C(C)OC)c2c3cc(ccc31)N1CCOC(CC(NC(=O)C(C(C)C)N(C)C(=O)C3(F)CCN(C(=O)C#CC(C)(C)N(C)C)CC3)C(=O)N3CCCC(N3)C(=O)OCC(C)(C)C2)C1 . Could you help?
Outgoing: 22.1

----------
Tested on: 242566-281-R-J2-PDC complex spheroid viability
procedure.details: Anticancer human tumor 242566-281-R-J2-PDC cell line growth inhibition [RAS];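 also: spheroids exposed to compound for 7 days before readout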;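 as to viability, T/C: 100% = DMSO vehicle control wells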
condition.set: second compound 0.3 µM; first compound 0.1 µM; stronger effect = lower value
Labelling field: enter yes if recorded viability, T/C is less than 70%. Enter no if it equals or exceeds that cut-off.

Here are 4 compounds together with their reported answers.
{"compound": "CC1(O)CCCC1n1c(=O)c(C(F)F)cc2cnc(NC3CCN(S(C)(=O)=O)CC3)nc21 (stereo unspecified) + CCn1c(-c2cccnc2C(C)OC)c2c3cc(ccc31)N1CCOC(CC(NC(=O)C(C(C)C)N(C)C(=O)C3(F)CCN(C(=O)C#CC(C)(C)N(C)C)CC3)C(=O)N3CCCC(N3)C(=O)OCC(C)(C)C2)C1", "answer.label": "yes"}
{"compound": "CCN1CCN(Cc2ccc(Nc3ncc(F)c(-c4cc(F)c5nc(C)n(C(C)C)c5c4)n3)nc2)CC1 + CCn1c(-c2cc(N3CCN(C)CC3)cnc2C(C)OC)c2c3cc(ccc31)-c1csc(n1)CC(NC(=O)C1CC1C)C(=O)N1CCCC(N1)C(=O)OCC(C)(C)C2", "answer.label": "yes"}
{"compound": "NC1c2ccccc2OC12CCN(c1cnc3c(N4CCCc5ncccc54)n[nH]c3n1)CC2 (stereo unspecified) + CCn1c(-c2cccnc2C(C)OC)c2c3cc(ccc31)N1CCOC(CC(NC(=O)C(C(C)C)N(C)C(=O)C3(F)CCN(C(=O)C#CC(C)(C)N(C)C)CC3)C(=O)N3CCCC(N3)C(=O)OCC(C)(C)C2)C1", "answer.label": "yes"}
{"compound": "Cc1nc(N2CCC3(CC2)COC(C)C3N)c(CO)nc1Sc1ccnc(N)c1Cl (stereo unspecified) + CCn1c(-c2cccnc2C(C)OC)c2c3cc(ccc31)N1CCOC(CC(NC(=O)C(C(C)C)N(C)C(=O)C3(F)CCN(C(=O)C#CC(C)(C)N(C)C)CC3)C(=O)N3CCCC(N3)C(=O)OCC(C)(C)C2)C1", "answer.label": "no"}

Incoming: Please check: viability, T/C for O=C(c1ccc(F)c(F)c1Nc1ccc(I)cc1F)N1CC(O)([C@@H]2CCCCN2)C1 + CCn1c(-c2cc(N3CCN(C)CC3)cnc2C(C)OC)c2c3cc(ccc31)-c1csc(n1)CC(NC(=O)C1CC1C)C(=O)N1CCCC(N1)C(=O)OCC(C)(C)C2 , strictly under 70% or not?
Outgoing: yes
